# target: RSV postfusion F (postF, F deltaFP) (Respiratory syncytial virus)
# measurement-protocol: BLI, IgG on sensor, 100 nM antigen
pKd: −log10 of the molar value.
Form field: pKd (one value per entry).
metric-name: pKd

1) ADI-41267 (antibody, V domains shown) VH: QVQLVQSGPGLVKPSGTLSLTCAVSGGSISTTHWWSWVRQPPGKGLEWIGEIYHSGSTNYNPSLKSRVTISVDKSRSQFSLKLTSVTAADTAVYYCARGDPLCSGGICYSGYFDYWGQGTLVTVSS VL: SYVLTQPPSVSVSPGQTATITCSGDKLGDQYACWYQQKSGQSPVLVIYRDNKRPSGIPERFSGSNSGNTATLTISETQAMDEADYYCQAWGSSSVVFGGGTKVTVL: 7.96
2) ADI-41278 (antibody, V domains shown) VH: EVQLVESGPALVKPTQTLTLTCTFSGFSLSTKRMGVSWIRQPPGKALEWLARIDWDDDKFYSTSLKTRLTISKDTSKNQVVLTLANMDPVDTATYFCARTTVYASGGYYLYYLDYWGQGTLVTVSS VL: DIVMTQTPSSLSASVGDRVTLTCRASQRIASYVNWYHQKPGKAPNLLIYAASNLQSGVPSRFSGSGSGTDFTLTISSLQPEDFATYYCQQSYSTPLTFGQGTKLEIK: 9.32
3) ADI-41323 (antibody, V domains shown) VH: EVQLLESGGGVVRPGGSLRLSCAASGFTFDDYAMGWVRQAPGKGLEWVSGITWNAGSTAYAGSVKGRFTISRDNAKNSLFLQMNSLRAEDTAFYLCARHVDSSGPVARHFDYWGQGTLVTVSS VL: NFMLTQPHSVSESPGKTVTISCTRSSGSIARNYVQWYQQRPGSAPTIVIYEDNQRPSGVPDRFSGSIDSSSNSASLTISGLKTEDEADYYCQSYDPSNVVFGGGTKLTVL: 9.48

Taken from patent US20260258115A1.
